- System: HCC38
- experimental protocol: cells
- Assay type: functional, cell-based
- condition parameters: Homo sapiens
- Description: SANGER: Inhibition of human HCC38 cell growth in a cell viability assay.
experimental readout: pIC50
Just so you know, pIC50 here is -log10 of the concentration in molar units; reply with that number alone.

[in] GET pIC50 | system: HCC38 | item: NC(=O)Nc1cc(-c2cccc(F)c2)sc1C(=O)N[C@H]1CCCNC1
[out] 6.13

Now for the molecule whose pIC50 we want.
[in] GET pIC50 | system: HCC38 | item: CC1(C)CCC(c2ccc(Cl)cc2)=C(CN2CCN(c3ccc(C(=O)NS(=O)(=O)c4ccc(N[C@H](CCN5CCOCC5)CSc5ccccc5)c(S(=O)(=O)C(F)(F)F)c4)cc3)CC2)C1;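 note: cell viability assay on the human HCC38 cell line, with IC50 marking the concentration that inhibits cell growth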
[out] 6.10
